Entries and their measured concentration at 2 h follow.
Procedure summary: Whole-blood pharmacokinetics of CBD and THC after single oral dose of Cannabis sativa extract
Experimental context: male, Wistar, rat, whole blood, oral, 30 mg/kg, Mean Concentration ± SD, blood; Rapae oleum; 2 h; single oral dose of extract 30 mg/kg
Endpoint name: concentration at 2 h (ng/g)

INSERT INTO results (molecule, endpoint_name, measured_number) VALUES
  ('C=C(C)[C@@H]1CCC(C)=C[C@H]1c1c(O)cc(CCCCC)cc1O', 'concentration at 2 h', 334),
  ('CCCCCc1cc(O)c2c(c1)OC(C)(C)[C@@H]1CCC(C)=C[C@@H]21 [THC, Δ-9-tetrahydrocannabinol]', 'concentration at 2 h', 24);

* * *

Procedure summary: Brain pharmacokinetics of CBD and THC after single oral dose of Cannabis sativa extract
Experimental context: male, Wistar, rat, brain/whole blood, oral, 30 mg/kg, brain/whole-blood ratio, Cremophor; present study
Endpoint name: Kp

INSERT INTO measurements (entry_smiles, measured_number) VALUES
  ('C=C(C)[C@@H]1CCC(C)=C[C@H]1c1c(O)cc(CCCCC)cc1O', 2.29);

* * *

Procedure summary: Brain pharmacokinetics of CBD and THC after single oral dose of Cannabis sativa extract
Experimental context: male, Wistar, rat, brain, oral, 30 mg/kg, Mean Concentration ± SD; Rapae oleum; 4 h; single oral dose of extract 30 mg/kg
Endpoint name: concentration at 4 h (ng/g)

INSERT INTO assay_data (compound, measured_number) VALUES
  ('CCCCCc1cc(O)c2c(c1)OC(C)(C)[C@@H]1CCC(C)=C[C@@H]21 [THC, Δ-9-tetrahydrocannabinol]', 27.8);

* * *

Recorded measurements of concentration at 6 h, one per entry
Procedure summary: Whole-blood pharmacokinetics of CBD and THC after single oral dose of Cannabis sativa extract
Experimental context: male, Wistar, rat, whole blood, oral, 30 mg/kg, mean concentration over time, Blood/Cremophor; 6 h; single oral dose of extract 30 mg/kg; Table 7
Endpoint name: concentration at 6 h (ng/mL)

INSERT INTO assay_data (molecule, measured_number) VALUES
  ('C=C(C)[C@@H]1CCC(C)=C[C@H]1c1c(O)cc(CCCCC)cc1O', 31.4),
  ('CCCCCc1cc(O)c2c(c1)OC(C)(C)[C@@H]1CCC(C)=C[C@@H]21 [THC, Δ-9-tetrahydrocannabinol]', 9.04);

* * *

// reported Kp for each item listed
Procedure summary: Brain pharmacokinetics of CBD and THC after single oral dose of Cannabis sativa extract
Experimental context: male, Wistar, rat, brain / whole blood, po, 30 mg/kg, AUCbrain:AUC whole blood (AUC0–24 ratio), Cremophor; single oral dose of extract 30 mg/kg
Endpoint name: Kp

INSERT INTO assay_data (compound, result) VALUES
  ('C=C(C)[C@@H]1CCC(C)=C[C@H]1c1c(O)cc(CCCCC)cc1O', 0.95),
  ('CCCCCc1cc(O)c2c(c1)OC(C)(C)[C@@H]1CCC(C)=C[C@@H]21 [THC, Δ-9-tetrahydrocannabinol]', 1.22);

* * *

Procedure summary: Brain pharmacokinetics of CBD and THC after single oral dose of Cannabis sativa extract
Experimental context: male, Wistar, rat, brain, po, 30 mg/kg, Cmax; Rapae oleum; single oral dose of extract 30 mg/kg
Endpoint name: Cmax (ng/g)

INSERT INTO results (molecule, unit_abbreviation, measured_number) VALUES
  ('C=C(C)[C@@H]1CCC(C)=C[C@H]1c1c(O)cc(CCCCC)cc1O', 'ng/g', 301),
  ('CCCCCc1cc(O)c2c(c1)OC(C)(C)[C@@H]1CCC(C)=C[C@@H]21 [THC, Δ-9-tetrahydrocannabinol]', 'ng/g', 75.8);

* * *

Procedure summary: Brain pharmacokinetics of CBD and THC after single oral dose of Cannabis sativa extract
Experimental context: male, Wistar, rat, brain, oral, 30 mg/kg, Mean Concentration; Cremophor; 4 h; single oral dose of extract 30 mg/kg
The entries below are paired with their reported concentration at 4 h.
Endpoint name: concentration at 4 h (ng/g)

INSERT INTO results (molecule, measured_number) VALUES
  ('CCCCCc1cc(O)c2c(c1)OC(C)(C)[C@@H]1CCC(C)=C[C@@H]21 [THC, Δ-9-tetrahydrocannabinol]', 36),
  ('C=C(C)[C@@H]1CCC(C)=C[C@H]1c1c(O)cc(CCCCC)cc1O', 52.1);

* * *

Listed here are compounds together with their documented concentration at 0.5 h.
Procedure summary: Whole-blood pharmacokinetics of CBD and THC after single oral dose of Cannabis sativa extract
Experimental context: male, Wistar, rat, whole blood, oral, 30 mg/kg, mean concentration over time, Blood/Cremophor; 0.5 h; single oral dose of extract 30 mg/kg; Table 7
Endpoint name: concentration at 0.5 h (ng/mL)

INSERT INTO measurements (compound, endpoint_name, measured_number) VALUES
  ('CCCCCc1cc(O)c2c(c1)OC(C)(C)[C@@H]1CCC(C)=C[C@@H]21 [THC, Δ-9-tetrahydrocannabinol]', 'concentration at 0.5 h', 13.1),
  ('C=C(C)[C@@H]1CCC(C)=C[C@H]1c1c(O)cc(CCCCC)cc1O [CBD, cannabidiol]', 'concentration at 0.5 h', 120);

* * *

Procedure summary: Whole-blood pharmacokinetics of CBD and THC after single oral dose of Cannabis sativa extract
Experimental context: male, Wistar, rat, whole blood, oral, 30 mg/kg, mean concentration over time, Blood/Cremophor; 24 h; single oral dose of extract 30 mg/kg; Table 7
Endpoint name: concentration at 24 h (ng/mL)

INSERT INTO assay_data (compound, endpoint_name, unit_abbreviation, measured_number) VALUES
  ('C=C(C)[C@@H]1CCC(C)=C[C@H]1c1c(O)cc(CCCCC)cc1O [CBD, cannabidiol]', 'concentration at 24 h', 'ng/mL', 12.3),
  ('CCCCCc1cc(O)c2c(c1)OC(C)(C)[C@@H]1CCC(C)=C[C@@H]21 [THC, Δ-9-tetrahydrocannabinol]', 'concentration at 24 h', 'ng/mL', 3.79);

* * *

concentration at 6 h listing for selected compounds.
Procedure summary: Brain pharmacokinetics of CBD and THC after single oral dose of Cannabis sativa extract
Experimental context: male, Wistar, rat, brain, oral, 30 mg/kg, Mean Concentration; Cremophor; 6 h; single oral dose of extract 30 mg/kg
Endpoint name: concentration at 6 h (ng/g)

INSERT INTO measurements (compound, unit_abbreviation, measured_number) VALUES
  ('CCCCCc1cc(O)c2c(c1)OC(C)(C)[C@@H]1CCC(C)=C[C@@H]21 [THC, Δ-9-tetrahydrocannabinol]', 'ng/g', 35.9),
  ('C=C(C)[C@@H]1CCC(C)=C[C@H]1c1c(O)cc(CCCCC)cc1O', 'ng/g', 57.7);

* * *

Procedure summary: Brain pharmacokinetics of CBD and THC after single oral dose of Cannabis sativa extract
Experimental context: male, Wistar, rat, brain, po, 30 mg/kg, MRT; Rapae oleum; single oral dose of extract 30 mg/kg
Endpoint name: MRT

INSERT INTO results (molecule, endpoint_name, result) VALUES
  ('C=C(C)[C@@H]1CCC(C)=C[C@H]1c1c(O)cc(CCCCC)cc1O [CBD, cannabidiol]', 'MRT', '7.76 h'),
  ('CCCCCc1cc(O)c2c(c1)OC(C)(C)[C@@H]1CCC(C)=C[C@@H]21 [THC, Δ-9-tetrahydrocannabinol]', 'MRT', '7.19 h');

* * *

Procedure summary: Whole-blood pharmacokinetics of CBD and THC after single oral dose of Cannabis sativa extract
Experimental context: male, Wistar, rat, whole blood, oral, 30 mg/kg, mean concentration over time, Blood/Rapae Oleum; 4 h; single oral dose of extract 30 mg/kg; Table 7
Endpoint name: concentration at 4 h (ng/mL)

INSERT INTO assay_data (compound, endpoint_name, measured_number) VALUES
  ('C=C(C)[C@@H]1CCC(C)=C[C@H]1c1c(O)cc(CCCCC)cc1O [CBD, cannabidiol]', 'concentration at 4 h', 154),
  ('CCCCCc1cc(O)c2c(c1)OC(C)(C)[C@@H]1CCC(C)=C[C@@H]21 [THC, Δ-9-tetrahydrocannabinol]', 'concentration at 4 h', 26.2);

* * *

Procedure summary: Whole-blood pharmacokinetics of CBD and THC after single oral dose of Cannabis sativa extract
Experimental context: male, Wistar, rat, whole blood, oral, 30 mg/kg, Mean Concentration, blood; Cremophor; 6 h; single oral dose of extract 30 mg/kg
Endpoint name: concentration at 6 h

INSERT INTO results (compound, endpoint_name, result) VALUES
  ('CCCCCc1cc(O)c2c(c1)OC(C)(C)[C@@H]1CCC(C)=C[C@@H]21 [THC, Δ-9-tetrahydrocannabinol]', 'concentration at 6 h', '9.04 ng/g'),
  ('C=C(C)[C@@H]1CCC(C)=C[C@H]1c1c(O)cc(CCCCC)cc1O', 'concentration at 6 h', '31.4 ng/g');

* * *

List of Cmax values.
Procedure summary: Whole-blood pharmacokinetics of CBD and THC after single oral dose of Cannabis sativa extract
Experimental context: male, Wistar, rat, whole blood, po, 30 mg/kg, Cmax; Cremophor; single oral dose of extract 30 mg/kg
Endpoint name: Cmax (ng/mL)

INSERT INTO assay_data (molecule, endpoint_name, measured_number) VALUES
  ('C=C(C)[C@@H]1CCC(C)=C[C@H]1c1c(O)cc(CCCCC)cc1O [CBD, cannabidiol]', 'Cmax', 120),
  ('CCCCCc1cc(O)c2c(c1)OC(C)(C)[C@@H]1CCC(C)=C[C@@H]21 [THC, Δ-9-tetrahydrocannabinol]', 'Cmax', 18.5);
